This collection of values is drawn from patent US20080306044A1.

# Tested on: human V1a receptor (Homo sapiens, UniProt P37288)
# Construct: expressed in transfected cells
# Sequence (P37288 whole entry): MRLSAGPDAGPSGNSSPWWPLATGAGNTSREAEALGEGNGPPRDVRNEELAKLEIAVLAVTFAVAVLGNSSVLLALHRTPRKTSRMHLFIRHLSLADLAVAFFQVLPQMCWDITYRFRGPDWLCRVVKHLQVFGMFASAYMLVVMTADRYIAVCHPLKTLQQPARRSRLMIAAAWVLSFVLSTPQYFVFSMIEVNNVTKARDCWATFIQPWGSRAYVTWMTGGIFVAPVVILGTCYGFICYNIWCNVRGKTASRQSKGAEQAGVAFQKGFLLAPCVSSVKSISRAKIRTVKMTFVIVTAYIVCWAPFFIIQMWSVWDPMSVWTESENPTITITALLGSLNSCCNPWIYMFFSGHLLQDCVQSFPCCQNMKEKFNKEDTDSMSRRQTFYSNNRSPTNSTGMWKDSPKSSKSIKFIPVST
# Procedure summary: cell-based
# Run conditions: V1 (functional) IC50, V1a-HEK cells; inhibition of vasopressin-stimulated intracellular calcium mobilization
pIC50: −log10 of the molar value.
Reported pIC50 values are given for each entry in this list.
Readout: pIC50

# Compound, Tested on, Readout, Obs value
rows = [
    ("O=C(Nc1ccc(C(=O)N2CCC3(CCCC3=NO)Cc3ccccc32)cc1)c1cc(F)ccc1Cl (stereo not shown)", "human V1a receptor (Homo sapiens, UniProt P37288)", "pIC50", 7.70),
    ("COc1cc(C(=O)N2CC[C@@]3(CC[C@@H](NS(N)(=O)=O)C3)Cc3ccccc32)ccc1NC(=O)c1cc(F)ccc1Cl", "human V1a receptor (Homo sapiens, UniProt P37288)", "pIC50", 7.11),
    ("COc1cc(C(=O)N2CC[C@@]3(CCC(=CC(=O)NCCO)C3)Cc3ccccc32)ccc1NC(=O)c1cc(F)ccc1Cl", "human V1a receptor (Homo sapiens, UniProt P37288)", "pIC50", 6.77),
    ("O=C(Nc1ccc(C(=O)N2CCC3(CCCC3=NNc3ccccn3)Cc3ccccc32)cc1)c1cc(F)ccc1Cl (stereo not shown)", "human V1a receptor (Homo sapiens, UniProt P37288)", "pIC50", 7.10),
    ("O=C(NN=C1CCCC12CCN(C(=O)c1ccc(NC(=O)c3cc(F)ccc3Cl)cc1)c1ccccc1C2)c1cccnc1 (stereo not shown)", "human V1a receptor (Homo sapiens, UniProt P37288)", "pIC50", 7.70),
    ("O=C(Nc1ccc(C(=O)N2CCC3(CCCC3=NO)Cc3ccccc32)cc1)c1ccccc1-c1ccccc1 (stereo not shown)", "human V1a receptor (Homo sapiens, UniProt P37288)", "pIC50", 7.52),
    ("COc1cc(C(=O)N2CCC3(CCCC3=NO)Cc3ccccc32)ccc1NC(=O)c1cc(F)ccc1Cl (stereo not shown)", "human V1a receptor (Homo sapiens, UniProt P37288)", "pIC50", 7.22),
]
